System: SK-OV-3
PROTOCOL_DESCRIPTION: NCI tumour cell line growth inhibition, 48 h
Activity calls are given as the source filed them. Rule as the data show it: active = GI50 up to about 1.1 µM and inactive = higher.
METRIC: GI50

Would you please look over these solved cases?
MOLECULE	GI50
CC(C)(Cl)C(Br)CC/C(CBr)=C(/Cl)CCl.CC(C)(Cl)C(Br)CC/C(CBr)=C(\Cl)CCl (stereo not given)	3.36 µM (inactive)
OCC(O)C(O)C(O)C(/C=N\Nc1ncnc2ccc(Br)cc12)=N/Nc1ncnc2ccc(Br)cc12 (stereo not given)	6.38 µM (inactive)
CC(=O)OCC(=O)O[C@@H]1[C@H]2[C@@H](OC(=O)c3ccccc3)[C@@H](C)C[C@]2(O)[C@H](OC(C)=O)[C@@]2(C)C(OC(C)=O)[C@]1(OC(C)=O)C[C@H]1C(=O)C(C)(C)C[C@@H]12 (stereo not given in full)	> 50 µM (inactive)
COc1ccc2nc3cc(Cl)ccc3c(NCCC(=O)OCC(O)C(O)C(O[C@H](C)C(=O)NC(C)C(=O)NC(CCC(N)=O)C(=O)OCc3ccccc3)C(C=O)NC(C)=O)c2c1 (stereo not given in full)	18.8 µM (inactive)
COC(=O)C1=C(C)NC(C)=C(C(=O)OC)C1c1ccccc1NO	> 100 µM (inactive)

Task: Which GI50 is reported for this molecule? `NCCSc1nc2ccccc2s1`
Output: 32.1 µM (inactive)

Task: Which GI50 is reported for this molecule? `Cc1ccc(-n2c(N)c(C#N)c3[nH]nc(N)c3c2=O)cc1`
Output: > 100 µM (inactive)

Task: Which GI50 is reported for this molecule? `COC(=O)/C(=C\C(=O)c1ccc(Br)cc1)NN=C(c1ccccc1)c1ccccc1`
Output: > 10 µM (inactive)

Task: Which GI50 is reported for this molecule? CCC1(N)C(=O)OCc2c1cc1n(c2=O)Cc2cc3ccccc3nc2-1 (stereo not given)
Output: > 100 µM (inactive)

Task: Which GI50 is reported for this molecule? `O=C(CN1CCCCC1)c1ccc2c(c1)Sc1ccccc1O2`
Output: 15.5 µM (inactive)
